# systemTested: biotinylated TGF-β1 (Homo sapiens (Human), UniProt P01137 279-390, Biotinylated (site or sites not stated) for capture on streptavidin plates. The active cytokine is a disulfide-linked 25 kDa homodimer; one subunit is given.)
# Sequence (P01137 279-390 limits assumed, form in doubt): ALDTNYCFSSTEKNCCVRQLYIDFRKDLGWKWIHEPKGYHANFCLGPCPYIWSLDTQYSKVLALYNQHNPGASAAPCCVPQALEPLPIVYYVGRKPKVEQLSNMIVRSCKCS
# experimentSummary: phage display biopanning on biotinylated TGF-β1 on streptavidin plates; clones among 108 colonies after 3 cycles
reportedEndpoint: log10 No. colonies (log10 of the value in colonies)
Form field - Quantity: No. colonies; Unit: colonies; Scale: log10

Recorded results for 2 binders are shown here.
RRWVRYPVHLHSPIV (15-aa peptide) [peptide identified by SEQ ID NO: 5]	0.00
SGRRHLHRHHIFSLP (15-aa peptide) [peptide identified by SEQ ID NO: 14]	0.30

Record log10 No. colonies per entry; entries follow.
1. RFFTRFPWHYHASRL (15-aa peptide) [peptide identified by SEQ ID NO: 3]
2. RHLSHFKWLRSHGLD (15-aa peptide) [peptide identified by SEQ ID NO: 19]
3. WHKYFLRRPLSVGLG (15-aa peptide) [peptide identified by SEQ ID NO: 12]

Response:
[1.61, 0.00, 0.00]

Record log10 No. colonies per entry; entries follow.
1. RLHGHRSHRFTHVAQ (15-aa peptide) [peptide identified by SEQ ID NO: 16]
2. RRFHFHSRMVAVDNS (15-aa peptide) [peptide identified by SEQ ID NO: 20]
3. MPLSRYWWLFSHRPR (15-aa peptide) [peptide identified by SEQ ID NO: 18]
4. DRRIFWWSNRSAPGA (15-aa peptide) [peptide identified by SEQ ID NO: 2]
5. DRRIFWWSLRSAPGA (15-aa peptide) [peptide identified by SEQ ID NO: 1]

Response:
0.00
0.00
0.00
0.00
0.78

Record log10 No. colonies per entry; entries follow.
1. FVWVRFHRLPRQIYT (15-aa peptide) [peptide identified by SEQ ID NO: 10]
2. VPMALNHGVYVMVSS (15-aa peptide) [peptide identified by SEQ ID NO: 22]
3. RKWFLQHRRMPVSVL (15-aa peptide) [peptide identified by SEQ ID NO: 13]
4. WHWRHRIPLQLAAGR (15-aa peptide) [peptide identified by SEQ ID NO: 8]
5. RLAHSHRHRSHVALT (15-aa peptide) [peptide identified by SEQ ID NO: 4]

Response:
[0.00, 0.00, 0.78, 0.30, 1.26]
